Data provenance is patent US6846840B2.

- System: BREAST cancer cell lines
- setup.conditions: log of concentration causing 50% lethality; arithmetic average of six to eight breast cell lines
I'd appreciate it if you could supply Log LC50 values for the items below.
Express it in moles/liter; write the number only.

Per the reported BREAST cancer cell lines data, CC1=C(N2CC2)C(=O)c2[nH]c3c(c2C1=O)CCC3=O [Cyclopent[b]indole 3e] has Log LC50 of −4.9

Per the reported BREAST cancer cell lines data, COC1CCc2c1[nH]c1c2C(=O)C(C)=C(N2CC2)C1=O (stereo not shown) [Cyclopent[b]indole 3d] has Log LC50 of −4.33

Per the reported BREAST cancer cell lines data, CC1=C(N2CC2)C(=O)c2c([nH]c(CO)c2C)C1=O [Indole 1b] has Log LC50 of −4.56

Per the reported BREAST cancer cell lines data, CC(=O)OCc1[nH]c2c(c1C)C(=O)C(N1CC1)=C(C)C2=O [Indole 1c] has Log LC50 of −4.57

Per the reported BREAST cancer cell lines data, CC1=C(N2CC2)C(=O)c2[nH]c3c(c2C1=O)CCC3O (stereo not shown) [Cyclopent[b]indole 3b] has Log LC50 of −4.47

Per the reported BREAST cancer cell lines data, CC1=C(N2CC2)C(=O)c2[nH]c(CO)c(C)c2C1=O [Indole 2b] has Log LC50 of −4.05

Per the reported BREAST cancer cell lines data, CC(=O)OC1CCc2c1[nH]c1c2C(=O)C(C)=C(N2CC2)C1=O (stereo not shown) [Cyclopent[b]indole 3c] has Log LC50 of −4.53

Per the reported BREAST cancer cell lines data, CC(=O)OC1CCc2c3c(n(C(C)=O)c21)C(=O)C(N1CC1)=C(C)C3=O (stereo not shown) [Cyclopent[b]indole 14] has Log LC50 of −4.5

---

- Tested on: RENAL cancer cell lines
- setup.conditions: log of concentration causing 50% lethality; arithmetic average of six to eight renal cell lines
I'd appreciate it if you could supply Log LC50 values for the items below.
Express it in moles/liter; write the number only.

Per the reported RENAL cancer cell lines data, CC(=O)OC1CCc2c3c(n(C(C)=O)c21)C(=O)C(N1CC1)=C(C)C3=O (stereo not shown) [Cyclopent[b]indole 14] has Log LC50 of −4.78

Per the reported RENAL cancer cell lines data, CC1=C(N2CC2)C(=O)c2c([nH]c(CO)c2C)C1=O has Log LC50 of −4.53

Per the reported RENAL cancer cell lines data, CC1=C(N2CC2)C(=O)c2[nH]c3c(c2C1=O)CCC3O (stereo not shown) [Cyclopent[b]indole 3b] has Log LC50 of −4.73
